test system: HT29; experiment: Cytotoxicity in vitro in the presence and absence of elastase (MTT); type: cell-based, human; details: Homo sapiens, HT-29; HT29 cells; without elastase; 72 h; MTT; read-out: HT29 IC50 w/o
Overview of reported IC50 across a group of molecules:

Previously resolved entries follow.
CC[C@@]1(O)C(=O)OCc2c1cc1n(c2=O)Cc2c-1nc1cc(F)c(C)c3c1c2[C@@H](NC(=O)Cc1ccncc1)CC3 | 1.1 to 10 nM
CC[C@@]1(O)C(=O)OCc2c1cc1n(c2=O)Cc2c-1nc1cc(F)c(C)c3c1c2[C@@H](NC(C)=O)CC3 | 0.01 to 0.1 nM

Okay, next one:
Query: Using the record for "CCN(CC)[C@H]1CCc2c(C)c(F)cc3nc4c(c1c23)Cn1c-4cc2c(c1=O)COC(=O)[C@]2(O)CC" , report its IC50.
Response: 1.1 to 10 nM
